ASSAY_SYSTEM: Cannabinoid receptor 2 (Homo sapiens)
Sequence (P34972 whole entry): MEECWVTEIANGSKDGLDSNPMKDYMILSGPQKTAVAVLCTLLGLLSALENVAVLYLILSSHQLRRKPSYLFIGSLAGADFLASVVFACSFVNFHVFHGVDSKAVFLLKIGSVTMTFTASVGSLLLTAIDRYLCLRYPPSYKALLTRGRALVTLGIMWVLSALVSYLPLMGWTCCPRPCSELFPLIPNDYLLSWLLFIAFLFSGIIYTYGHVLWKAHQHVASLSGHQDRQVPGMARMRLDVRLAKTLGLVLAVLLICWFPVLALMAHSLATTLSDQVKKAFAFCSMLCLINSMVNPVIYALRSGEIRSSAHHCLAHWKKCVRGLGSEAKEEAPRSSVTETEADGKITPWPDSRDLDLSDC
MEASUREMENT_NAME: Ki (nM)
Numbers only; they are read as nM.

Field: example entries. Status: answers known.
| ENTRY_SMILES | MEASUREMENT_NAME | DISPLAY_UNIT | ASSAY_VALUE |
| --- | --- | --- | --- |
| CCOc1ccccc1/N=C1\SCC(C)(C)CN1C(=S)SC | Ki | nM | 84 |
| CSC(=S)N1CC(C)(C)CS/C1=N\c1ccccc1C(F)(F)F | Ki | nM | 141 |
| CSC(=S)N1CC(C)(C)CS/C1=N\c1ccccc1Br | Ki | nM | 371 |
| CSC(=S)N1CC(C)(C)CS/C1=N\c1ccccc1C(C)(C)C | Ki | nM | 313 |
| CC(C)SC(=S)N1CC(C)(C)CS/C1=N\c1ccccc1C(C)C | Ki | nM | 275 |

Exercise: Which Ki is listed for "CSC(=S)N1CC(C)(C)CS/C1=N\c1ccccc1Oc1ccccc1" ?
Key: 2920

Exercise: Which Ki is listed for "CC(C)c1ccccc1/N=C1\SCC(C)(C)CN1Cc1ccccc1" ?
Key: 1360
